# study-system: Cruzipain (Trypanosoma cruzi) (UniProt P25779)
# Sequence (P25779 123-467 limits assumed): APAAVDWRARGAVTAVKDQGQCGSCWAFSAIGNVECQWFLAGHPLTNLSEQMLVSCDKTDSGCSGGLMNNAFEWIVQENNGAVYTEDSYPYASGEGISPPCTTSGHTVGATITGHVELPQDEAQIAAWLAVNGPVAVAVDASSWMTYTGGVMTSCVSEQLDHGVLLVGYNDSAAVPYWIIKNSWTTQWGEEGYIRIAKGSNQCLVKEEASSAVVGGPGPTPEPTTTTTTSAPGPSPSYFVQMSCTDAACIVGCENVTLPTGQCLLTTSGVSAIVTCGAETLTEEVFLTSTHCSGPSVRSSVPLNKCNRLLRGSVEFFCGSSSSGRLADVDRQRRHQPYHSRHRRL
# experimental-protocol: Inhibition of Trypanosoma cruzi recombinant cruzain using Z-FR-AMC as substrate at 20 uM preincubated for 10 mins before substrate addition
Activity calls are given as the source filed them. The rule behind the calls is not given here.
readout-label: inhibition

Record excerpt, results attached:
CCC1S/C(=N/N=C(\C)COc2ccccc2)NC1=S (racemic) = 48%
CCC1S/C(=N/N=C(\C)COc2ccccc2)N(c2ccc(C)cc2)C1=O (racemic) = 65%
C/C(COc1ccccc1)=N\N=C1/NC(=O)C(c2ccccc2)S1 (racemic) = 63%
COc1ccc(-c2csc(N/N=C(\C)COc3ccccc3)n2)cc1 = inactive

Input: Input C/C(COc1ccccc1)=N\Nc1nc(-c2ccc(F)cc2)cs1 , output reported inhibition.
Output: inactive

Input: Please give the documented inhibition of C/C(COc1ccccc1)=N\N=C1\SC(C(C)C)C(=O)N1C (racemic)
Output: 81%

Input: Recall and state the measured inhibition for CCC1S/C(=N/N=C(\C)COc2ccccc2)N(c2ccccc2)C1=O (racemic) .
Output: 66%

Input: Please report inhibition for the following compound: CCC1S/C(=N/N=C(\C)COc2ccccc2)N(C)C1=O (racemic)
Output: 50%

Input: // fetch inhibition given entry CCC1S/C(=N/N=C(\C)COc2ccccc2)N(C2CCCCC2)C1=O (racemic)
Output: 10%

Input: Recall and state the measured inhibition for C/C(COc1ccccc1)=N\Nc1nc(-c2ccc([N+](=O)[O-])cc2)cs1 .
Output: inactive

Input: Fill in inhibition for record C/C(COc1ccccc1)=N\Nc1nc(-c2ccc(C)cc2)cs1
Output: inactive

Every entry's value here was drawn from ChEMBL document CHEMBL2176891.
